test system: MDA-MB468; assay: SRB antiproliferative assay, MDA-MB468; format: cell-based, human; conditions: Homo sapiens, MDA-MB-468, 48 h
Field: GI50. Provide a value for each of the molecules that follow.
Numbers only, in µM.

// known answers, use as guide
O=S(=O)(c1ccc(-c2ccccc2)cc1)N1CCN(c2ccnc3cc(C(F)(F)F)ccc23)CC1 ... 20.5
Cc1ccc(S(=O)(=O)NCCCNc2ccnc3cc(C(F)(F)F)ccc23)cc1 ... 6.21
O=[N+]([O-])c1ccc(S(=O)(=O)NCCCNc2ccnc3cc(Cl)ccc23)c([N+](=O)[O-])c1 ... 7.35
O=S(=O)(NCCCNc1ccnc2cc(Cl)ccc12)c1ccc(Cl)cc1 ... 8.34
O=[N+]([O-])c1cccc(S(=O)(=O)NCCCNc2ccnc3cc(C(F)(F)F)ccc23)c1 ... 9.09

Give one value of GI50 per listed molecule.
1. O=S(=O)(NCCCNc1ccnc2cc(C(F)(F)F)ccc12)c1ccc(Cl)cc1
2. O=[N+]([O-])c1ccc(S(=O)(=O)N2CCN(c3ccnc4cc(C(F)(F)F)ccc34)CC2)c([N+](=O)[O-])c1

1. 10.3
2. 19.2
